Assign normalized growth to each entry below.
- protocolDetails: chemical genetic growth profiling, strain panel (AID 1159580);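 further: tested at 20 µM; growth read once vehicle control cultures reached saturation at 30 °C; 1 = growth at the plate median or of vehicle wells; lower values mean less growth of the strain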
- testSettings: S. cerevisiae deletion strains, growth OD, locus YDL185W, strain tfp1, hits give low values
Screen size: about 5,500 compounds; about 2,000 (36%) were called active. Not shown: some 18% with an inconclusive outcome. The list shows a part of the results.
Respond with the number and no other words.

Reported normalized growth of CC(=O)c1cc(CC=C(C)C)c(O)c(CC=C(C)C)c1 : 0.927

Reported normalized growth of CN(C)[C@@H]1C(=O)C(C(N)=O)=C(O)[C@@]2(O)C(=O)C3=C(O)c4c(O)ccc(Cl)c4[C@@H](O)[C@H]3C[C@@H]12 : 0.984

Reported normalized growth of O=C(O)c1cccnc1 : 1.01

Reported normalized growth of O=C(NCO)c1cccnc1 : 1.01

Reported normalized growth of COc1ccc2cc(CCC(C)=O)ccc2c1 : 0.945

---

Assign normalized growth to each entry below.
- protocolDetails: chemical genetic growth profiling, strain panel (AID 1159580)
- testSettings: S. cerevisiae deletion strains, growth OD, locus YBR229C, strain ROT2, hits give low values
Among all 5,500 compounds or so, about 2,000 (36%) were called active. About 18% were inconclusive and are not listed. This is one part of the list.
Respond with the number and no other words.

Reported normalized growth of C(=C(c1ccccc1)c1ccccc1)N1CCC1 : 0.993

Reported normalized growth of Clc1ccc(Sc2ncnc3ccsc23)cc1 : 0.893

Reported normalized growth of CN[C@@H]1[C@H](O)[C@H](NC)[C@H]2O[C@@]3(O)C(=O)C[C@@H](C)O[C@H]3O[C@@H]2[C@H]1O : 1.01

Reported normalized growth of C/C1=C/CC(C)(C)/C=C/C/C(C)=C/CC1 : 1.03

---

Assign normalized growth to each entry below.
- protocolDetails: chemical genetic growth profiling, strain panel (AID 1159580)
- testSettings: S. cerevisiae deletion strains, growth OD, locus YOR001W, strain rrp6, hits give low values
About 2,000 (36%) of roughly 5,500 compounds were called active. Roughly 18% stayed inconclusive and do not appear here. Some of the results follow.
Respond with the number and no other words.

Reported normalized growth of COC(=O)c1c(OC)cc2c(c1C)Oc1c(Cl)c(OC(C)=O)c(Cl)c(C)c1C(=O)O2 : 0.988

Reported normalized growth of CC(CCC(=O)O)[C@H]1CCC2C3CC[C@@H]4C[C@H](O)CC[C@]4(C)C3C=C[C@@]21C (some centres undefined) : 0.86

Reported normalized growth of Cc1cc(=O)oc2cc(O)c(O)cc12 : 0.967

Reported normalized growth of CCCSc1ccc2nc(NC(=O)OC)[nH]c2c1 : 1.01

Reported normalized growth of NC1=NCCN1CC(=O)O : 0.966

Reported normalized growth of O=P1(NCCCl)OCCCN1CCCl (centres undefined) : 0.973

Reported normalized growth of NC(Cn1ccc(=O)c(O)c1)C(=O)O (centres undefined) : 0.969

Reported normalized growth of C/C=C\C1=C(C(=O)O)N2C(=O)C(NC(=O)C(N)c3ccc(O)cc3)C2SC1 (centres undefined) : 1.02

Reported normalized growth of CC1=CC(=O)c2c(O)cccc2C1=O : 0.065

---

- protocolDetails: chemical genetic growth profiling, strain panel (AID 1159580)
- testSettings: S. cerevisiae deletion strains, growth OD, locus YLR357W, strain rsc2, hits give low values
Among all 5,500 compounds or so, about 2,000 (36%) were called active. About 18% were inconclusive and are not listed. This is one part of the list.
Assign normalized growth to each entry below.
Respond with the number and no other words.

Reported normalized growth of O=C(O)c1ccc(S(=O)(=O)N(Cl)Cl)cc1 : 1.01

Reported normalized growth of CCCN(CCC)S(=O)(=O)c1ccc(C(=O)O)cc1 : 0.951

Reported normalized growth of CC(C)C[C@@H](CN)CC(=O)O : 0.987

---

Assign normalized growth to each entry below.
- protocolDetails: chemical genetic growth profiling, strain panel (AID 1159580);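 further: tested at 20 µM; growth read once vehicle control cultures reached saturation at 30 °C; 1 = growth at the plate median or of vehicle wells; lower values mean less growth of the strain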
- testSettings: S. cerevisiae deletion strains, growth OD, locus YBR279W, strain paf1, hits give low values
In all, about 5,500 compounds went through this assay and about 2,000 (36%) were called active. About 18% were inconclusive and are not listed. This is one part of the list.
Respond with the number and no other words.

Reported normalized growth of CCOC(=O)NNc1nncc2ccccc12 : 1.02

Reported normalized growth of CC(=O)O[C@H]1CCC2(C)C3=C(CCC2C1(C)C)[C@@]1(C)CC[C@@H](C(C)CCC=C(C)C)[C@]1(C)CC3 (stereo partly specified) : 1.02

Reported normalized growth of O=C(O)c1ccc(S(=O)(=O)N(Cl)Cl)cc1 : 0.992

Reported normalized growth of C=C1C[C@]23C[C@@]1(O)CC[C@H]2[C@@]12C=C[C@H](O)[C@@](C)(C(=O)O1)[C@H]2[C@@H]3C(=O)O : 1.02

Reported normalized growth of NC1=NCCN1CC(=O)O : 1.01

Reported normalized growth of CC(=O)O[C@H]1CC[C@@]2(C)C(=CC(=O)C3C4CCC(C(C)CCCC(C)C)[C@@]4(C)CCC32)C1 (stereo partly specified) : 0.996

Reported normalized growth of COc1ccc2cc(CCC(C)=O)ccc2c1 : 0.993

Reported normalized growth of CC(=O)N[C@@H](Cc1c[nH]c2ccccc12)C(N)=O : 1.01

Reported normalized growth of COC(=O)c1c(OC)cc2c(c1C)Oc1c(Cl)c(O)c(Cl)c(C)c1C(=O)O2 : 0.992

Reported normalized growth of COC(=O)c1c(OC)cc2c(c1C)Oc1c(Cl)c(OC(C)=O)c(Cl)c(C)c1C(=O)O2 : 0.982

Reported normalized growth of Nc1ccc(S(=O)(=O)NC(=O)c2ccccc2)cc1 : 0.985

Reported normalized growth of CCN(CC)CCOCCOC(=O)C1(c2ccccc2)CCCC1 : 0.995

Reported normalized growth of O=C(O)c1cccnc1 : 1

Reported normalized growth of CN1CCN(C(=O)OC2c3nccnc3C(=O)N2c2ccc(Cl)cn2)CC1 (stereo unspecified) : 1.01

Reported normalized growth of CC[N+](C)(C)c1cccc(O)c1 : 1.01

Reported normalized growth of O=C(NCO)c1cccnc1 : 1.01

Reported normalized growth of O=C(O)c1ccccc1 : 0.981

Reported normalized growth of CNNC : 1.02

Reported normalized growth of Cc1c(C)c2c(c(C)c1O)CCC(C)(CCCC(C)CCCC(C)CCCC(C)C)O2 (stereo unspecified) : 0.99

Reported normalized growth of CCN1CCN(C(=O)NC(C(=O)N[C@@H]2C(=O)N3[C@@H]2SC(C)(C)[C@@H]3C(=O)O)c2ccccc2)C(=O)C1=O (stereo partly specified) : 1

Reported normalized growth of CCN(CC)CCOC(=O)C1(C2CCCCC2)CCCCC1 : 0.973

---

- protocolDetails: chemical genetic growth profiling, strain panel (AID 1159580);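 further: tested at 20 µM; growth read once vehicle control cultures reached saturation at 30 °C; 1 = growth at the plate median or of vehicle wells; lower values mean less growth of the strain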
- testSettings: S. cerevisiae deletion strains, growth OD, locus YDR297W, strain sur2, hits give low values
In all, about 5,500 compounds went through this assay and about 2,000 (36%) were called active. Another 18% or so got no clear call; they are omitted. Some of the results follow.
Classify: rule met when normalized growth is strictly less than 1; rule not met when normalized growth is not.

Challenge: Does CC(C)(C)NC[C@H](O)c1ccc(O)c(CO)c1 have normalized growth strictly under 1?
Response given: rule not met

Challenge: Does O=C(OCc1ccccc1)c1ccccc1 have normalized growth strictly under 1?
Response given: rule met

---

- protocolDetails: chemical genetic growth profiling, strain panel (AID 1159580);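 further: tested at 20 µM; growth read once vehicle control cultures reached saturation at 30 °C; 1 = growth at the plate median or of vehicle wells; lower values mean less growth of the strain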
- testSettings: S. cerevisiae deletion strains, growth OD, locus YDR162C, strain NBP2, hits give low values
About 2,000 (36%) of roughly 5,500 compounds were called active. Not shown: some 18% with an inconclusive outcome. This is one part of the list.
Assign normalized growth to each entry below.

Reported normalized growth of Nc1ccc(S(=O)(=O)NC(=O)c2ccccc2)cc1 : 1 (inactive)

Reported normalized growth of CC(C)CCCC(C)C1CCC2C3CC(=O)[C@H]4C[C@@H](O)CC[C@]4(C)C3CC[C@]12C (stereo partly specified) : 1.04 (inactive)

Reported normalized growth of CC(C)CCCC(C)[C@H]1CCC2C3CC=C4CC(=O)CC[C@]4(C)C3CC[C@@]21C (stereo partly specified) : 0.939 (inactive)

Reported normalized growth of Oc1c(Cl)cc(Cl)cc1Sc1cc(Cl)cc(Cl)c1O : 1.01 (inactive)

Reported normalized growth of COc1ccc2cc(CCC(C)=O)ccc2c1 : 0.943 (inactive)

Reported normalized growth of CC(=O)Oc1ccc(O)cc1 : 0.916 (inactive)

Reported normalized growth of OC[C@H]1O[C@@](CO)(O[C@@H]2O[C@H](CO)[C@@H](O)[C@H](O)[C@H]2O)[C@@H](O[C@@H]2O[C@H](CO)[C@@H](O)[C@H](O)[C@H]2O)[C@@H]1O : 1.07 (inactive)

Reported normalized growth of C=C1c2c(Cl)ccc(O)c2C(O)=C2C(=O)[C@]3(O)C(O)=C(C(N)=O)C(=O)[C@@H](N(C)C)[C@@H]3[C@@H](O)[C@H]12 : 0.945 (inactive)

Reported normalized growth of OC[C@H]1O[C@@H](O[C@H]2[C@H](O)[C@@H](O)[C@@H](O)O[C@@H]2CO)[C@H](O)[C@@H](O)[C@@H]1O : 1.02 (inactive)

Reported normalized growth of CC(CCc1ccccc1)NCC(O)c1ccc(O)c(C(N)=O)c1 (stereo unspecified) : 1.02 (inactive)

Reported normalized growth of COc1ccc([C@@H]2CC(=O)c3c(O)cc(O[C@@H]4O[C@H](CO[C@H]5O[C@@H](C)[C@H](O)[C@@H](O)[C@H]5O)[C@@H](O)[C@H](O)[C@H]4O)cc3O2)cc1O : 1.01 (inactive)

Reported normalized growth of CC(=O)Oc1cccc(O)c1 : 1.02 (inactive)

Reported normalized growth of CC(C)CCCC(C)[C@H]1CCC2C3CC[C@@H]4C[C@H](O)CC[C@]4(C)C3CC[C@@]21C (stereo partly specified) : 1.03 (inactive)

Reported normalized growth of CS(=O)(=O)Nc1ccc([N+](=O)[O-])cc1Oc1ccccc1 : 0.979 (inactive)

Reported normalized growth of NC(Cn1ccc(=O)c(O)c1)C(=O)O (stereo unspecified) : 1.02 (inactive)

Reported normalized growth of CC(C)=CCCC(C)[C@@H]1CC[C@]2(C)C3=C(CC[C@@]12C)C1(C)CC[C@H](O)C(C)(C)C1CC3 (stereo partly specified) : 0.913 (inactive)

Reported normalized growth of CN(C)c1ccc(O)c2c1C[C@H]1C[C@H]3[C@H](N(C)C)C(=O)C(C(N)=O)=C(O)[C@@]3(O)C(=O)C1=C2O : 0.964 (inactive)

Reported normalized growth of O=P1(N(CCCl)CCCl)NCCCO1 (stereo unspecified) : 1.01 (inactive)

Reported normalized growth of CC(=O)O[C@@H]1CC2C(C)(C)C(=O)C=C[C@]2(C)C2CC[C@]3(C)C(=CC(=O)O[C@H]3c3ccoc3)[C@@]21C (stereo partly specified) : 0.988 (inactive)

Reported normalized growth of CC(=O)O[C@H]1CCC2(C)C3=C(CCC2C1(C)C)[C@@]1(C)CC[C@@H](C(C)CCC=C(C)C)[C@]1(C)CC3 (stereo partly specified) : 1.01 (inactive)

Reported normalized growth of CC(=O)OC1CCC2(C)C(CC(OC(C)=O)C3(C)C4=CC(=O)OC(c5ccoc5)C4(C)CCC23)C1(C)C (stereo unspecified) : 1.01 (inactive)

Reported normalized growth of C[C@H]1c2cccc(O)c2C(O)=C2C(=O)[C@]3(O)C(O)=C(C(N)=O)C(=O)[C@@H](N(C)C)[C@@H]3[C@@H](O)[C@@H]21 : 0.978 (inactive)

Reported normalized growth of CC(C)=CC1C(C(=O)O)C1(C)C (stereo unspecified) : 1.08 (inactive)

Reported normalized growth of CC(CCC(=O)O)[C@H]1CCC2C3CC[C@@H]4CC(=O)CC[C@]4(C)C3C=C[C@@]21C (stereo partly specified) : 0.999 (inactive)

Reported normalized growth of CCN1CCN(C(=O)NC(C(=O)N[C@@H]2C(=O)N3[C@@H]2SC(C)(C)[C@@H]3C(=O)O)c2ccccc2)C(=O)C1=O (stereo partly specified) : 0.997 (inactive)

Reported normalized growth of CC(=O)O[C@H]1CC[C@@]2(C)C(C[C@@H](OC(C)=O)[C@@]3(C)C4=CC(=O)O[C@@H](c5ccoc5)[C@]4(C)CCC23)C1(C)C (stereo partly specified) : 0.992 (inactive)

Reported normalized growth of CC(C)CCCC(C)C1CC[C@@]2(C)C3=C(CC[C@]12C)[C@@]1(C)CC[C@H](O)C(C)(C)C1CC3 (stereo partly specified) : 1.02 (inactive)

Reported normalized growth of CC(=O)Oc1ccc(/C=C/c2cc(OC(C)=O)cc(OC(C)=O)c2)cc1 : 0.977 (inactive)

Reported normalized growth of O=C(O)c1cccnc1 : 0.985 (inactive)

Reported normalized growth of Cc1cc(=O)oc2cc(O)c(O)cc12 : 0.985 (inactive)

Reported normalized growth of OC[C@H]1O[C@@H](O[C@@H]2[C@@H](CO)O[C@](O)(CO)[C@H]2O)[C@H](O)[C@@H](O)[C@H]1O : 1.01 (inactive)
